# System: IL10 secretion, OCI-LY3 cells
# test: Human IL10 Mesoscale assay (OCI-LY3)
# Assay type: cell-based
# conditions: 24 h incubation
measured.metric: IC50 (nM)

compound	meas.value
O=C(Nc1cnc(-n2nccn2)c(C(F)(F)F)c1)c1cnn(-c2ccc(F)c3nccn23)c1C(F)(F)F [Cpd 4]	31
O=C(Nc1cnc(-c2ncco2)c(Cl)c1)c1cnn(-c2ccc(F)c3nccn23)c1C(F)(F)F [Cpd 6]	105

I = O=C(Nc1cnc(-n2nccn2)c(Cl)c1)c1cnn(-c2ccc(Cl)n3nccc23)c1C(F)(F)F [Cpd 15]
II = O=C(Nc1cnc([C@@H]2CCCO2)c(Cl)c1)c1cnn(-c2ccc(Cl)n3nccc23)c1C(F)(F)F (single isomer, unassigned) [Cpd 21]
III = N#Cc1ccc(-n2ncc(C(=O)Nc3cnc([C@@H]4CCCO4)c(Cl)c3)c2C(F)(F)F)c2ccnn12 (single isomer, unassigned) [Cpd 23]
Challenge: // sort entries: IC50, high to low Form entry: labels listed in requested order.
Response given: II, III, I
(II: 200 nM, III: 115 nM, I: 31 nM)

Where do these numbers come from? They come from patent US10888550B2.
